B1: Homeobox protein cut-like 1, residues 548 to 629; numbered along this chain, P39880 (parent)
chain: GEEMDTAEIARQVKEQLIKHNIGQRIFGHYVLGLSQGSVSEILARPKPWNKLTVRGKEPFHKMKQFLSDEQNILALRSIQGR

variants of: B1; assay: abundance fitness (aPCA) (normalised: wild type 0, dead -1); higher = more abundant; growth selection in yeast, the domain comes from the species named; conditions: Homo sapiens
Where abundance fitness equals or exceeds -0.2, the correct label is fulfilled; where it does not, the label is not fulfilled.

mutant_label=R25K class_name=fulfilled
mutant_label=R77D class_name="not fulfilled"
mutant_label=I79P class_name="not fulfilled"
mutant_label=E70P class_name=fulfilled
mutant_label=T53E class_name="not fulfilled"
mutant_label=N21V class_name="not fulfilled"
mutant_label=E41V class_name="not fulfilled"
mutant_label=E15K class_name="not fulfilled"
mutant_label=R82E class_name=fulfilled
mutant_label=Y30M class_name=fulfilled
mutant_label=M4L class_name=fulfilled

Entry source: the Human Domainome abundance scans (Beltran et al. 2025)
